- target_under_test: Tyrosine-protein phosphatase non-receptor type 11 (Homo sapiens)
- protocol: Inhibition of SHP2 catalytic domain assessed as inhibition of pNPP to p-nitrophenol conversion at 50 uM after 5 mins by spectrophotometry
quantity_kind: inhibition (%)

// solved cases for inhibition follow
CC(=O)c1c(C)oc2ccc(NS(=O)(=O)c3cccc(C(=O)O)c3)cc12
71.5
O=C(O)c1cccc(NS(=O)(=O)c2ccc(Cl)c(C(=O)O)c2)c1
7
O=C(O)c1cc(S(=O)(=O)Nc2ccccc2C(=O)O)ccc1Br
4.5
O=C(O)c1ccccc1NC(=O)c1ccccc1-c1ccccc1C(=O)O
38
O=C(O)c1cc(N/C(=N\S(=O)(=O)c2ccccc2)c2ccccc2)ccc1O
12.5
O=C(O)c1cccc(NS(=O)(=O)c2ccc3c4c(cccc24)C(=O)N3)c1
4.5
O=C(O)c1ccc(CNS(=O)(=O)c2ccc(C(=O)O)cc2)cc1
40.5
O=C(O)/C=C/c1cccc(NS(=O)(=O)c2ccc(C(=O)O)cc2)c1
5.5

(A) CS(=O)(=O)N(CC(=O)Nc1ccccc1C(=O)O)c1ccc(F)cc1
(B) O=C(O)c1ccccc1NS(=O)(=O)c1cccc2nsnc12
[Q] Quick check, higher inhibition between A and B ? Which one? Tell me its label.
[A] A
